Ref: patent US20240010750A1

- measured-target: T1, human alpha2-Antiplasmin (human, UniProt P08697 40-491)
- T1 sequence: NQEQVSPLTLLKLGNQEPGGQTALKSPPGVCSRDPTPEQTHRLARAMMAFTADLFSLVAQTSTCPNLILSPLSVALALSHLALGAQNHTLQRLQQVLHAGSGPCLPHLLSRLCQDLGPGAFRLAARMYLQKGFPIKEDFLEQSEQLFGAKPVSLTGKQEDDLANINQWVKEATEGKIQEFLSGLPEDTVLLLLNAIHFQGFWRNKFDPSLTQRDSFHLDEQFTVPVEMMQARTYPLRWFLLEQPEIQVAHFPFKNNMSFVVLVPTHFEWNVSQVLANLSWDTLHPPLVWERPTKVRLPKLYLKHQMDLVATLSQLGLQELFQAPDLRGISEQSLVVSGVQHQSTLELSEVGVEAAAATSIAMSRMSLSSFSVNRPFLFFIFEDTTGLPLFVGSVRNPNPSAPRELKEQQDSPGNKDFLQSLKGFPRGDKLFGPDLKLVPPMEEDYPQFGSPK
- test: cell-based or functional assay
Listing of recorded function blocking activity [IC50 M], 1st exp. by entry.
Only the number, expressed in nM, is required.

Problem: Give recorded function blocking activity [IC50 M], 1st exp.. TPP-14314 hIgG1 (antibody, V domains shown, Human IgG1 lambda) VH: EVQLLESGGGLVQPGGSLRLSCAASGFTFDDYAMSWVRQAPGKGLEWVSAIGTGGGTYYADSVKGRFTISRDNSKNTLYLQMNSLRAEDTAVYYCAREYYDSSGYYHLVYWGQGTLVTVSS VL: QSVLTQPPSASGTPGQRVTISCTGSSSNIGATYDVHWYQQLPGTAPKLLIYSNNQRPSGVPDRFSGSKSGTSASLAISGLRSEDEADYYCAAWDVSLSGWVFGGGTKLTVL
Solution: 68

Problem: Give recorded function blocking activity [IC50 M], 1st exp.. TPP-14313 hIgG1 (antibody, V domains shown, Human IgG1 lambda) VH: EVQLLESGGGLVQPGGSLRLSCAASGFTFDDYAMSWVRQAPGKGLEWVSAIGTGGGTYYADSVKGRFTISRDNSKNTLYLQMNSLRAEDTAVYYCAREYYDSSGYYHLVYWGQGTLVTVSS VL: QSVLTQPPSASGTPGQRVTISCTGSSSNIGATYDVHWYQQLPGTAPKLLIYSNNQRPSGVPDRFSGSKSGTSASLAISGLRSEDEADYYCAAWDWSLSGWVFGGGTKLTVL
Solution: 12

Problem: Give recorded function blocking activity [IC50 M], 1st exp.. TPP-14293 hIgG1 (antibody, V domains shown) VH: EVQLLESGGGLVQPGGSLRLSCAASGFTFDDYAMSWVRQAPGKGLEWVSAIGTGGGTYYADSVKGRFTISRDNSKNTLYLQMNSLRAEDTAVYYCDREYYDSSGYYHLDYWGQGTLVTVSS VL: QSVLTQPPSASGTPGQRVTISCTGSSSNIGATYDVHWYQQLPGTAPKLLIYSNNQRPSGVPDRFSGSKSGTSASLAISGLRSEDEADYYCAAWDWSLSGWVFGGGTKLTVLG
Solution: 46

Problem: Give recorded function blocking activity [IC50 M], 1st exp.. TPP-14318 hIgG1 (antibody, V domains shown) VH: EVQLLESGGGLVQPGGSLRLSCAASGFTFDDYAMSWVRQAPGKGLEWVSAIGTGGGTYYADSVKGRFTISRDNSKNTLYLQMNSLRAEDTAVYYCAREYYDSSGYYHLEYWGQGTLVTVSS VL: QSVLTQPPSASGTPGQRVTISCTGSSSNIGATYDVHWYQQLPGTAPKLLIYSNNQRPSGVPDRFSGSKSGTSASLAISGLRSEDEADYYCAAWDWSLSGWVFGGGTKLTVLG
Solution: 20
